Test system: HBV genomes in the supernatants from HepG2.2.15 cells
assay-notes: Kinetic PCR HBV anti-viral assay on supernatants from HepG2.2.15 cells
Format: cell-based, hepatitis B virus
assay-conditions: copy number of HBV genomes in HepG2.2.15 supernatants, day 10
Method: In addition to Southern hybridizations, kinetic PCR was performed to assay the supernatants from the HepG2.2.15 cells. This procedure was carried out as described by Higuchi et al. (Biotechnol. (1993) 11:1026–1030). […] Following this treatment, the viral particles were subject to analysis by kinetic PCR. […] A kinetic PCR analysis was performed by plotting the average intensity of fluorescence from each PCR sample after each annealing/extension cycle against the cycle number. […]
Strand notation (5' to 3'): a small letter for the sugar, then the base; units joined by * are phosphorothioate-linked, units joined directly phosphodiester-linked; [ ] holds rarer units or linkages, { } end groups; capitals alone tell only the bases. d = 2'-deoxy (DNA)
I'd appreciate it if you could supply pIC50 values for the items below.
One number for each entry, as −log10 of the molar value.

These solved cases illustrate the format of a correct answer.
- sequence-data: "TCGATGTCCATGCCCCAAAG (phosphorothioate, further chemistry not given here) [HBV4]"
  pIC50: 5.92
- sequence-data: "GATAGGGGCATTTGGTGGTC (phosphorothioate, further chemistry not given here) [HBVpol-2]"
  pIC50: 5.43
- sequence-data: "GAGGTGAAAAAGTTGCATGG (antisense dG*dA*dG*dG*dT*dG*dA*dA*dA*dA*dA*dG*dT*dT*dG*dC*dA*dT*dG*dG) [HBV48]"
  pIC50: 6.15

Now for the sequence whose pIC50 we want.
Q: Endpoint output: pIC50 of GAAAAAGTTGCATGGTGCTG (antisense dG*dA*dA*dA*dA*dA*dG*dT*dT*dG*dC*dA*dT*dG*dG*dT*dG*dC*dT*dG) [HBV44] . Value?
A: 6.15

* * *

System: internally 32P-labelled HBV precore-core RNA (epsilon region)
assay-notes: RNase H cleavage of HBV precore-core RNA with noncontiguous oligonucleotides targeted to the epsilon region
Assay type: biochemical, hepatitis B virus
assay-conditions: 10+10 and 12+12 noncontiguous oligonucleotides versus mixtures of arms; FIGS. 5A, 6A
Strand notation (5' to 3'): a small letter for the sugar, then the base; units joined by * are phosphorothioate-linked, units joined directly phosphodiester-linked; [ ] holds rarer units or linkages, { } end groups; capitals alone tell only the bases. d = 2'-deoxy (DNA)
measurement-label: total RNA cleavage by RNase H

- sequence-data: "TATAAGGGTCGAAGGCAGAGGTGA (antisense dT*dA*dT*dA*dA*dG*dG*dG*dT*dC*dG*dA*dA*dG*dG*dC*dA*dG*dA*dG*dG*dT*dG*dA) [HBV79]"
  result: "equal"
- sequence-data: "AGGCAGAGGTGATATAAGGGTCGA (chemistry not given here) [HBV67]"
  result: "equal"
